# Test system: Setaria viridis (SETVI)
# ASSAY: Pre-emergence herbicidal action against Setaria viridis
# Assay type: in vivo
# MEASUREMENT_CONTEXT: 1280 g/ha; scored visually after about 3 weeks vs untreated controls; 100% = plants have died, 0% = like control plants
MEASUREMENT_NAME: Pre-emergence action against Setaria viridis (SETVI) (%)
Note: unit % is implicit; provide only the numeric part.

Please review the following examples before continuing.
Item: Cc1ccc(Oc2ccc(Cl)cc2)c(Oc2ncc(Cl)cn2)n1 [Example I-504] | Pre-emergence action against Setaria viridis (SETVI): 100

Entry Cc1ccc(Oc2ccc(Cl)cc2)c(Oc2ncc(F)cn2)n1 [Example I-515] , Pre-emergence action against Setaria viridis (SETVI) reported as 100

The recorded Pre-emergence action against Setaria viridis (SETVI) for entry COc1cc(Cc2ccc(C)nc2Oc2ncc(Cl)cn2)ccc1F [Example I-406] equals 100

Query Cc1ccc(Cc2ccc(F)cc2F)c(Oc2ncc(Cl)cn2)n1 [Example I-400] yields Pre-emergence action against Setaria viridis (SETVI) of 100

Please fill in: Pre-emergence action against Setaria viridis (SETVI) reported for Cc1ccnc(Oc2ncccn2)c1Sc1ccc(F)cc1F [Example I-210] = 100

// next item, Pre-emergence action against Setaria viridis (SETVI) requested
Reported Pre-emergence action against Setaria viridis (SETVI) ( COc1cc(Oc2ccc(C)nc2Oc2ncc(Cl)cn2)ccc1F [Example I-509] ) = 90

###

Pre-emergence action against Setaria viridis (SETVI) reference
# Test system: Setaria viridis (SETVI)
# ASSAY: Pre-emergence herbicidal action against Setaria viridis
# Assay type: in vivo
# MEASUREMENT_CONTEXT: 1280 g/ha; scored visually after about 3 weeks vs untreated controls; 100% = plants have died, 0% = like control plants
Expressed in %, but write only the number.

Solved entries (count: 4):
// returns Pre-emergence action against Setaria viridis (SETVI) for COc1c(F)ccc(Cc2c(C)cc(C)nc2Oc2ncc(F)cn2)c1F with Setaria viridis (SETVI); value = 100

Result for COc1cc(Cc2c(C)cc(C)nc2Oc2ncc(F)cn2)ccc1F , tested on Setaria viridis (SETVI), Pre-emergence action against Setaria viridis (SETVI): 100

Item: Cc1ccnc(Oc2ncccn2)c1Sc1cccc(Cl)c1 | System: Setaria viridis (SETVI) | Pre-emergence action against Setaria viridis (SETVI): 100

Form field, Pre-emergence action against Setaria viridis (SETVI) with Setaria viridis (SETVI), item Cc1ccc(Cc2ccccc2)c(Oc2ncc(Cl)cn2)n1 : 100

Others:
Measured Pre-emergence action against Setaria viridis (SETVI) (Setaria viridis (SETVI)), entry Cc1ccc(Oc2ccc(Cl)cc2)c(Oc2ncc(C(F)(F)F)cn2)n1 : 90

###

# Tested on: Matricaria inodora (MATIN)
# ASSAY: Post-emergence herbicidal action against Matricaria inodora
# Assay type: in vivo
# MEASUREMENT_CONTEXT: 1280 g/ha; rated visually after about 3 weeks vs untreated controls; 100% = plants have died, 0% = like control plants; column head prints STEME
Overview of reported Post-emergence action against Matricaria inodora (MATIN) across a group of molecules:
Respond with the bare value in %.

Past entries and their recorded results:
So for Cc1cc(C)c(Cc2ccc(F)cc2F)c(Oc2ncc(F)cn2)n1 , the logged Post-emergence action against Matricaria inodora (MATIN) turned out to be 90

Entry Cc1cc(C)c(Cc2ccc(F)cc2)c(Oc2ncc(F)cn2)n1 ; Post-emergence action against Matricaria inodora (MATIN) = 100

For this molecule ( Cc1cc(C)c(Cc2ccccc2)c(Oc2ncc(F)cn2)n1 ), measured Post-emergence action against Matricaria inodora (MATIN) is 90

The molecule listed as Cc1ccc(Cc2ccc(F)cc2F)c(Oc2ncccn2)n1 has a reported Post-emergence action against Matricaria inodora (MATIN) of 90

Documented Post-emergence action against Matricaria inodora (MATIN) of COc1cccc(Cc2c(C)cc(C)nc2Oc2ncc(F)cn2)c1 : 100

***
Entry COc1cc(Cc2c(C)cc(C)nc2Oc2ncc(F)cn2)ccc1F , Post-emergence action against Matricaria inodora (MATIN) reported as 100
